- experimental_system: Tyrosine-protein kinase HCK (Homo sapiens);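 also: values are mean inhibition of HCK, taken from the GSK_PKIS kinase profiling screen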
- experimental_parameters: at 0.1 µM

[
  {
    "compound_structure": "CCn1c(-c2nonc2N)nc2c(C#CC(C)(C)O)nc(O[C@@H](CN)c3ccccc3)cc21",
    "output_unit": "%",
    "inhibition": 0.41
  },
  {
    "compound_structure": "Cc1cc(-c2ccco2)cc(C)c1/C=C/c1cncc(-c2nn[nH]n2)c1",
    "output_unit": "%",
    "inhibition": 1.62
  },
  {
    "compound_structure": "CCn1c(-c2nonc2N)nc2c(C#CCN)ncc(OCCCN)c21",
    "output_unit": "%",
    "inhibition": 0.79
  },
  {
    "compound_structure": "NS(=O)(=O)c1ccc(-c2ccc3c(NC(=O)C4CC4)n[nH]c3c2)cc1",
    "output_unit": "%",
    "inhibition": 4.22
  },
  {
    "compound_structure": "Fc1ccc(-c2ncn(C3CCNCC3)c2-c2ccnc(Oc3ccccc3)n2)cc1",
    "output_unit": "%",
    "inhibition": 2.11
  },
  {
    "compound_structure": "COc1cccc(COc2cc(-n3cnc4ccccc43)sc2C(N)=O)c1",
    "output_unit": "%",
    "inhibition": -1.32
  }
]

###

- experimental_system: Inhibitor of nuclear factor kappa-B kinase subunit beta (Homo sapiens) (UniProt O14920);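 also: values are mean percent inhibition of IKKB, part of the GSK PKIS screening data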
- Sequence (O14920 whole entry): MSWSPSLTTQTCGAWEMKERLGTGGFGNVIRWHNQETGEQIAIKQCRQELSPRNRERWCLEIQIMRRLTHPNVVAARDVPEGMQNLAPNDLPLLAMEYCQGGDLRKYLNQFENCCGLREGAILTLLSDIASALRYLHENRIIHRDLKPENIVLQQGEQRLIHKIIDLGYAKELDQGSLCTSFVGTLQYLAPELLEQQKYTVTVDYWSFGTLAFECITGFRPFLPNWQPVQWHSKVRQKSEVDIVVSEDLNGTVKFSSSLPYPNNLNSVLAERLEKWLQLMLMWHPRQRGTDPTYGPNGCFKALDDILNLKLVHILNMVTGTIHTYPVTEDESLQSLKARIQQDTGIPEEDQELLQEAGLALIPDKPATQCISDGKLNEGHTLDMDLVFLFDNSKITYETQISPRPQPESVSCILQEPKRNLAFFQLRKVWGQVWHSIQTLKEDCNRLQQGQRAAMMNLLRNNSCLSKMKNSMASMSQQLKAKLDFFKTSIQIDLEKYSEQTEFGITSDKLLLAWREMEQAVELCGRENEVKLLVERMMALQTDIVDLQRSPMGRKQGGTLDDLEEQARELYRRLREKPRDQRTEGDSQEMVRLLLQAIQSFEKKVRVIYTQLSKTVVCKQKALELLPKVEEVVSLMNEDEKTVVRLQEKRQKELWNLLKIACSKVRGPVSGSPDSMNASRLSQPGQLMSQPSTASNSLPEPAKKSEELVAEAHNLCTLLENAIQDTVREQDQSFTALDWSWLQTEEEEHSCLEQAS
- experimental_parameters: at 0.1 µM
inhibition overview

[
  {
    "compound_structure": "CCn1c(-c2nonc2N)nc2c(C#CC(C)(C)O)ncc(OC[C@@H]3CCCN3)c21",
    "output_unit": "%",
    "inhibition": 4.75
  },
  {
    "compound_structure": "COc1cccc(-n2ncc3c(N/N=C/c4ccncc4)ncnc32)c1",
    "output_unit": "%",
    "inhibition": 4.82
  },
  {
    "compound_structure": "Fc1ccc(-c2ncn(C3CCNCC3)c2-c2ccnc(Oc3ccccc3)n2)cc1",
    "output_unit": "%",
    "inhibition": 4.13
  },
  {
    "compound_structure": "NS(=O)(=O)c1ccc(-c2ccc3c(NC(=O)C4CC4)n[nH]c3c2)cc1",
    "output_unit": "%",
    "inhibition": 3.94
  },
  {
    "compound_structure": "CCn1c(-c2nonc2N)nc2c(C#CC(C)(C)O)nc(O[C@@H](CN)c3ccccc3)cc21",
    "output_unit": "%",
    "inhibition": -1.36
  },
  {
    "compound_structure": "Nc1nonc1-c1nc2cnccc2n1C1CCCCC1",
    "output_unit": "%",
    "inhibition": -2.5
  },
  {
    "compound_structure": "COc1cccc(COc2cc(-n3cnc4ccccc43)sc2C(N)=O)c1",
    "output_unit": "%",
    "inhibition": -0.21
  },
  {
    "compound_structure": "NC(=O)c1sc(-n2cnc3cc(C(F)(F)F)ccc32)cc1OCc1ccccc1Br",
    "output_unit": "%",
    "inhibition": 3.87
  },
  {
    "compound_structure": "CCn1c(-c2nonc2N)nc2c(C#CC(C)(C)O)ncc(OCC3CCNCC3)c21",
    "output_unit": "%",
    "inhibition": 4.88
  }
]

###

- experimental_system: Serine/threonine-protein kinase pim-3 (Homo sapiens)
- experimental_parameters: at 1 µM
- Description: GSK_PKIS: PIM3 mean inhibition at 1 uM [Nanosyn]
Consider the reported inhibition of an entry and match it to a band in bucket A = under 4%, bucket B = from 4% up to 20%, bucket C = 20% and over

[
  {
    "compound_structure": "CCn1c(-c2nonc2N)nc2c(C#CC(C)(C)O)ncc(OCC3CCNCC3)c21",
    "experimental_system": "Serine/threonine-protein kinase pim-3 (Homo sapiens)",
    "assigned_category": "bucket C"
  },
  {
    "compound_structure": "CCn1c(-c2nonc2N)nc2c(C#CC(C)(C)O)ncc(OC[C@@H]3CCCN3)c21",
    "experimental_system": "Serine/threonine-protein kinase pim-3 (Homo sapiens)",
    "assigned_category": "bucket B"
  },
  {
    "compound_structure": "NS(=O)(=O)c1ccc(N/C=C2\\C(=O)Nc3ccc4ncsc4c32)cc1",
    "experimental_system": "Serine/threonine-protein kinase pim-3 (Homo sapiens)",
    "assigned_category": "bucket B"
  },
  {
    "compound_structure": "CCn1c(-c2nonc2N)nc2c(C#CC(C)(C)O)nc(O[C@@H](CN)c3ccccc3)cc21",
    "experimental_system": "Serine/threonine-protein kinase pim-3 (Homo sapiens)",
    "assigned_category": "bucket C"
  },
  {
    "compound_structure": "COc1cccc(-n2ncc3c(N/N=C/c4ccncc4)ncnc32)c1",
    "experimental_system": "Serine/threonine-protein kinase pim-3 (Homo sapiens)",
    "assigned_category": "bucket B"
  },
  {
    "compound_structure": "Cc1cc(-c2ccco2)cc(C)c1/C=C/c1cncc(-c2nn[nH]n2)c1",
    "experimental_system": "Serine/threonine-protein kinase pim-3 (Homo sapiens)",
    "assigned_category": "bucket A"
  },
  {
    "compound_structure": "CCn1c(-c2nonc2N)nc2c(C#CCN)ncc(OCCCN)c21",
    "experimental_system": "Serine/threonine-protein kinase pim-3 (Homo sapiens)",
    "assigned_category": "bucket C"
  },
  {
    "compound_structure": "NC(=O)c1sc(-n2cnc3cc(C(F)(F)F)ccc32)cc1OCc1ccccc1Br",
    "experimental_system": "Serine/threonine-protein kinase pim-3 (Homo sapiens)",
    "assigned_category": "bucket A"
  },
  {
    "compound_structure": "COc1cccc(COc2cc(-n3cnc4ccccc43)sc2C(N)=O)c1",
    "experimental_system": "Serine/threonine-protein kinase pim-3 (Homo sapiens)",
    "assigned_category": "bucket A"
  },
  {
    "compound_structure": "Nc1nonc1-c1nc2cnccc2n1C1CCCCC1",
    "experimental_system": "Serine/threonine-protein kinase pim-3 (Homo sapiens)",
    "assigned_category": "bucket C"
  }
]

###

- experimental_system: Cyclin-dependent kinase 2 (Homo sapiens);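 also: mean inhibition of the CDK2–cyclin A kinase complex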
- experimental_parameters: at 1 µM

[
  {
    "compound_structure": "COc1cc(C=NNc2ncnc3c2cnn3Cc2ccccc2)ccc1O",
    "inhibition": "0.3%"
  },
  {
    "compound_structure": "NS(=O)(=O)c1ccc(-c2ccc3c(NC(=O)C4CC4)n[nH]c3c2)cc1",
    "inhibition": "13.4%"
  },
  {
    "compound_structure": "COc1cc2c(cc1Nc1nc(Nc3ccsc3C(N)=O)c3cc[nH]c3n1)N(C(=O)CN(C)C)CCC2",
    "inhibition": "6.12%"
  },
  {
    "compound_structure": "CCn1c(-c2nonc2N)nc2c(C#CC(C)(C)O)ncc(OCC3CCNCC3)c21",
    "inhibition": "4.17%"
  },
  {
    "compound_structure": "CCn1c(-c2nonc2N)nc2c(C#CC(C)(C)O)nc(O[C@@H](CN)c3ccccc3)cc21",
    "inhibition": "4.12%"
  },
  {
    "compound_structure": "Nc1nonc1-c1nc2cnccc2n1C1CCCCC1",
    "inhibition": "44.6%"
  },
  {
    "compound_structure": "CCn1c(-c2nonc2N)nc2c(C#CCN)ncc(OCCCN)c21",
    "inhibition": "0.59%"
  },
  {
    "compound_structure": "Cc1cc(-c2ccco2)cc(C)c1/C=C/c1cncc(-c2nn[nH]n2)c1",
    "inhibition": "1.75%"
  },
  {
    "compound_structure": "COc1cccc(COc2cc(-n3cnc4ccccc43)sc2C(N)=O)c1",
    "inhibition": "-0.04%"
  },
  {
    "compound_structure": "COc1cccc(-n2ncc3c(N/N=C/c4ccncc4)ncnc32)c1",
    "inhibition": "76.8%"
  }
]

###

// inhibition lookup, one value per entry
- experimental_system: Serine/threonine-protein kinase Nek9 (Homo sapiens) (UniProt Q8TD19);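 also: each value is a mean percent inhibition of NEK9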
- Sequence (Q8TD19 whole entry): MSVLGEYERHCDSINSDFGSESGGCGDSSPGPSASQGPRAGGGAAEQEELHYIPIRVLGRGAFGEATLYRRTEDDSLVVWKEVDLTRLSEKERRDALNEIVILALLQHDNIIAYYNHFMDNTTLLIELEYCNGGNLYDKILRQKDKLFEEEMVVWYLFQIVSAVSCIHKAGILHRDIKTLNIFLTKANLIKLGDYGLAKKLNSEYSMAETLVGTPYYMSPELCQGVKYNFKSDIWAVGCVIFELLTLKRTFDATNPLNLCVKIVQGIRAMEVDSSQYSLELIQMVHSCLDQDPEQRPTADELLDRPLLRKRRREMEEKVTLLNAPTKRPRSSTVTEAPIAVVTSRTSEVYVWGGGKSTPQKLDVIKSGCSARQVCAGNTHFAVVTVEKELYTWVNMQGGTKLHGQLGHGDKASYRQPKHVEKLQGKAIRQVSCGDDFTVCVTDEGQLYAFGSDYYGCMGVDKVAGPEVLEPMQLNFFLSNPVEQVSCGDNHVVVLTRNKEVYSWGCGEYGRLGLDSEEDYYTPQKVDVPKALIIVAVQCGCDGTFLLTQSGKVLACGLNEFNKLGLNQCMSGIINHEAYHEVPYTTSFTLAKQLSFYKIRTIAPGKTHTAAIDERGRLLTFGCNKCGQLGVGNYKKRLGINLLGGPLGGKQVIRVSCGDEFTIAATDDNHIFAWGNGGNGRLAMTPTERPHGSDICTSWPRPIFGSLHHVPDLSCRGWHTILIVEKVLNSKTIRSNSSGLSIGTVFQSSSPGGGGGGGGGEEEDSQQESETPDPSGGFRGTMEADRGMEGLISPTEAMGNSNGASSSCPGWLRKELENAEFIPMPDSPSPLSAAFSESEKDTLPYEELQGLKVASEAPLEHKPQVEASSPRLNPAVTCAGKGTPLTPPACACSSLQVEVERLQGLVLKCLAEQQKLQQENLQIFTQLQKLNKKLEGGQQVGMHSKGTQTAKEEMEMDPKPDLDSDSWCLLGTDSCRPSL
- experimental_parameters: at 1 µM

[
  {
    "compound_structure": "COc1cc2c(cc1Nc1nc(Nc3ccsc3C(N)=O)c3cc[nH]c3n1)N(C(=O)CN(C)C)CCC2",
    "output_unit": "%",
    "inhibition": -3.87
  },
  {
    "compound_structure": "Nc1nonc1-c1nc2cnccc2n1C1CCCCC1",
    "output_unit": "%",
    "inhibition": -2.86
  },
  {
    "compound_structure": "CCn1c(-c2nonc2N)nc2c(C#CC(C)(C)O)ncc(OCC3CCNCC3)c21",
    "output_unit": "%",
    "inhibition": 8.54
  },
  {
    "compound_structure": "COc1cccc(-n2ncc3c(N/N=C/c4ccncc4)ncnc32)c1",
    "output_unit": "%",
    "inhibition": 6.71
  },
  {
    "compound_structure": "Cc1cc(-c2ccco2)cc(C)c1/C=C/c1cncc(-c2nn[nH]n2)c1",
    "output_unit": "%",
    "inhibition": 1.42
  },
  {
    "compound_structure": "NS(=O)(=O)c1ccc(-c2ccc3c(NC(=O)C4CC4)n[nH]c3c2)cc1",
    "output_unit": "%",
    "inhibition": 3.68
  },
  {
    "compound_structure": "CCn1c(-c2nonc2N)nc2c(C#CC(C)(C)O)ncc(OC[C@@H]3CCCN3)c21",
    "output_unit": "%",
    "inhibition": 0.02
  },
  {
    "compound_structure": "NC(=O)c1sc(-n2cnc3cc(C(F)(F)F)ccc32)cc1OCc1ccccc1Br",
    "output_unit": "%",
    "inhibition": 10.3
  },
  {
    "compound_structure": "COc1cccc(COc2cc(-n3cnc4ccccc43)sc2C(N)=O)c1",
    "output_unit": "%",
    "inhibition": 8.39
  }
]

Reference source for all entries: ChEMBL document CHEMBL1961873
